B1: ZNF193 (parent)
chain: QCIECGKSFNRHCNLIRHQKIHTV

# Variants of: B1
# PROTOCOL_NOTES: protein stability index of a GFP-peptide fusion (GPS, HEK-293T) (PSI 1-6); higher = more stable;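 further: lentivirally expressed fusions sorted by FACS into six bins by GFP to DsRed ratio, PSI derived from sequencing read proportions per bin multiplied by bin number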
# CONDITION_CONTEXT: c terminus: a fixed tail appended

VARIANT_IDENTIFIER	protein stability index
K20E	3.29
Q19S	3.46
N14D	5.09
I3H	4.06
C5Y	2.26
H18Y	1.41
Q19M	3.48
K7W	2.18
C5I	1.53
K20F	2.95
C2Q	2.14
T23R	3.91
H18K	2.38
N14R	3.12
T23S	3.68
C5R	2.22
K7T	2.93
N10G	3.29
I21K	4.25
